The origin of these recorded values is ChEMBL document CHEMBL3988442.

- Species on record: Homo sapiens
- TEST DETAILS: To identify inhibition of the IFN signalling (Jak-Stat) pathway via expression of an eGFP reporter gene under the control of an IFN-stimulated response element (ISRE) containing MxA promoter.
- Format: functional
- Parameters: scale not given: direction of the effect not stated beside the values
- CONDITION DETAILS: 30 µM
QUANTITY KIND: Percent Effect (%)
Reply with just the number (in %).

For orientation, consider the following solved cases.
>  <MOLECULE>
CCCNCc1cc2c(C)cc(C)cc2n2c(=O)n(C)nc12

>  <UNIT OF MEASURE>
%

>  <Percent Effect>
16.2

$$$$
>  <MOLECULE>
COCC(=O)N1CC[C@@H](O)[C@@H]1Cc1ccccc1

>  <UNIT OF MEASURE>
%

>  <Percent Effect>
-19.5

$$$$
>  <MOLECULE>
CN(C)c1cc(C(=O)N2CCCC(n3cccn3)C2)ccn1 (stereo unspecified)

>  <UNIT OF MEASURE>
%

>  <Percent Effect>
18.3

$$$$
>  <MOLECULE>
CCOC1CCCN(C(=O)NCCc2ccn(-c3ccccc3)n2)C1 (stereo unspecified)

>  <UNIT OF MEASURE>
%

>  <Percent Effect>
0.938

$$$$
>  <MOLECULE>
O=C(NCCCNCC1CNc2ccnn2C1)c1ccccc1 (stereo unspecified)

>  <UNIT OF MEASURE>
%

>  <Percent Effect>
9.18

$$$$
>  <MOLECULE>
CCC(=O)Nc1ccc2c(c1)CN(C(=O)c1ccco1)CC2

>  <UNIT OF MEASURE>
%

>  <Percent Effect>
33.1

$$$$
>  <MOLECULE>
O=C(C1CCOCC1)N1C[C@@H]2[C@@H](C1)OCC(=O)N2Cc1ccncc1

>  <UNIT OF MEASURE>
%

>  <Percent Effect>
2.13

$$$$
>  <MOLECULE>
CC(C(=O)NCCOc1cccc(Cl)c1)n1cncn1 (stereo unspecified)

>  <UNIT OF MEASURE>
%

>  <Percent Effect>
-10.4

$$$$

Can you share its Percent Effect? I mean this molecule: Cc1ccc(NC2CCN(C(=O)c3ccc(Cl)o3)CC2)nn1
24.5

Can you share its Percent Effect? I mean this molecule: O=C(NCCNc1cnccn1)N1CCCC1
8.14

Can you share its Percent Effect? I mean this molecule: Cc1noc(C)c1CN(C)CCC(=O)N1CCc2sccc2C1
17.8

Can you share its Percent Effect? I mean this molecule: CN(C)C(=O)c1nc2c(s1)CCN(C(=O)c1ccc(Cl)cc1)CC2
-8.27

Can you share its Percent Effect? I mean this molecule: N#Cc1ccc(C(=O)N2CC[C@H]3[C@@H]2CCC(=O)N3c2cccnc2)cc1
-4.58

Can you share its Percent Effect? I mean this molecule: O=C1CCCc2nccc(-c3ccccc3)c21
9.37

Can you share its Percent Effect? I mean this molecule: COC(=O)COc1nc(CC(C)C)c2c(c1C#N)CCCC2
38.2

Can you share its Percent Effect? I mean this molecule: Cc1ncsc1C(=O)NCCOc1ncc(Cl)cc1Cl
25.4

----------
- TEST SYSTEM: AMP-activated protein kinase, AMPK (Homo sapiens) (UniProt P54646+O43741+P54619+Q9UGJ0+Q9Y478+Q13131+Q9UGI9)
- TEST DETAILS: AMP-dependent Kinase enzyme assay. An in vitro enzyme assay that detects ADP turnover that is directly proportional to AMPK activity. This uses naive AMPK that is activated during the assay with MK-8722
- Type: functional
- Set-up: scale not given: direction of the effect not stated beside the values
- CONDITION DETAILS: 30 µM
QUANTITY KIND: Percent Effect (%)
Reply with just the number (in %).

>  <MOLECULE>
O=C(NCc1ccoc1)NC1CCCN(c2ncccn2)C1 (stereo not given)

>  <QUANTITY KIND>
Percent Effect

>  <UNIT OF MEASURE>
%

>  <ASSAY VALUE>
6.88

$$$$
>  <MOLECULE>
O=C(c1ccncc1)N1C[C@@H]2CC[C@H](C1)N(C(=O)N1CCOCC1)C2

>  <QUANTITY KIND>
Percent Effect

>  <UNIT OF MEASURE>
%

>  <ASSAY VALUE>
-4.2

$$$$
>  <MOLECULE>
O=C(Cc1ccccc1)N1CCC2(CC(=O)N(c3cccc(F)c3)C2)C1 (stereo not given)

>  <QUANTITY KIND>
Percent Effect

>  <UNIT OF MEASURE>
%

>  <ASSAY VALUE>
-5.09

$$$$
>  <MOLECULE>
CCCC(Nc1c(C#N)c(=O)n(C)c(=O)n1C)c1ccc(F)cc1F (stereo not given)

>  <QUANTITY KIND>
Percent Effect

>  <UNIT OF MEASURE>
%

>  <ASSAY VALUE>
0.965

$$$$
>  <MOLECULE>
Cc1cnn(CCC(=O)N2CCN(c3nc(C)cs3)CC2)c1

>  <QUANTITY KIND>
Percent Effect

>  <UNIT OF MEASURE>
%

>  <ASSAY VALUE>
-10.1

$$$$
>  <MOLECULE>
O=C(COc1ccccc1)N1CCC[C@]2(C[C@H](OCC3CC3)CO2)C1

>  <QUANTITY KIND>
Percent Effect

>  <UNIT OF MEASURE>
%

>  <ASSAY VALUE>
0.996

$$$$
>  <MOLECULE>
CCc1noc(CNc2ccc(C(=O)N3CCCC(C)C3)cc2C)n1 (stereo not given)

>  <QUANTITY KIND>
Percent Effect

>  <UNIT OF MEASURE>
%

>  <ASSAY VALUE>
2.37

$$$$
>  <MOLECULE>
CC(C)Cc1cc(NC(=O)c2ccc[nH]2)n(C)n1

>  <QUANTITY KIND>
Percent Effect

>  <UNIT OF MEASURE>
%

>  <ASSAY VALUE>
3.29

$$$$
>  <MOLECULE>
CC(=O)c1cccc(OCCCC(=O)N(C)Cc2cccc(O)c2)c1

>  <QUANTITY KIND>
Percent Effect

>  <UNIT OF MEASURE>
%

>  <ASSAY VALUE>
5.1

$$$$
>  <MOLECULE>
N#CCCN(CCC#N)C(=O)CN1CCCC1Cc1cccc(F)c1 (stereo not given)

>  <QUANTITY KIND>
Percent Effect

>  <UNIT OF MEASURE>
%

>  <ASSAY VALUE>
-6.01

$$$$

Can you share its Percent Effect? I mean this molecule: CCn1nc(C)c2nc(C(C)C)nc(NCCOC)c21
7.63

Can you share its Percent Effect? I mean this molecule: CC1CN(Cc2nccn2C)CCN1c1ccc2nncn2n1 (stereo not given)
-8.38

Can you share its Percent Effect? I mean this molecule: O=C1NCC[C@]12CN(Cc1ccoc1)C[C@H]2c1ccccc1
11.9
